Tested on: MYLK
condition info: concentration: 1 μM, replicates: in singlicate; n = 1
In this section, each of the compounds is paired with its reported %Inh.
Field: numeric (%). Do not append units.

%Inh for COc1cccc(CNC(=O)NC2CCN(c3ccnc(Nc4ccc(F)cc4)n3)C2)c1 (stereo not drawn) is 0

response.value for Cc1cnc(N)c(/C=C/c2cncc(C(=O)NCCc3ccc(Cl)cc3Cl)c2)c1.Cl (field: %Inh) = 20

The measured %Inh associated with COc1ccc(Nc2nccc(N3CCC(NC(=O)c4cc5ccccc5s4)C3)n2)cc1 (stereo not drawn) reads 11

Recorded %Inh (compound COc1ccc(CSc2nnc(-c3ccc4nccn4c3)o2)cc1C(F)(F)F ): 0

Consider Nc1cccc(-c2ccc3c(N)n[nH]c3c2)n1 . Its measured %Inh is 34

Per the records, this compound ( Cc1ccc(NC(=O)Nc2ccccc2)cc1-c1ccc(C(=O)Nc2ccncc2)cc1 ) has %Inh equal to 20

Just so you know, measured %Inh for CC[C@@H]1CO[C@H](C(=O)Nc2ccccc2)CN1c1cc(-c2ccc3c(N)n[nH]c3c2)nc(NC)n1 came out at 22

%Inh recorded for this compound, NS(=O)(=O)c1cccc(N/C=C2\C(=O)Nc3ccc(S(=O)(=O)Cc4c(Cl)cccc4Cl)cc32)c1 , is 18

Per the record, Fc1ccc(-c2nc[nH]c2-c2ccncc2)cc1 has %Inh of 3

* * *

Tested on: CDK3
condition info: concentration: 1 μM, replicates: in singlicate; n = 1
Note to self: use Met only for %Inh readings below 10%; a reading exactly at 10% still gets Not met.

For Fc1ccc(-c2nc3n(c2-c2ccncc2)CCS3)cc1 , is the recorded %Inh below the cut-off of 10%?
Not met

Quick check: does Cc1nccc(-c2c(-c3ccc(F)cc3)ncn2CCCN2CCOCC2)n1.Cl have %Inh under 10%?
Not met

Lab note: confirm whether the reported %Inh for this molecule is below 10%, equality not counting. molecule: O=c1cc(N2CCOCC2)nc2n(Cc3cccc(Cl)c3Cl)c3ccccc3n12
Not met

# strict comparison: is reported %Inh < 10%? input = CNCc1ccc2nc(NC(=O)c3ccc(C(C)(C)C)cc3)cn2c1
Met

Determine if Cc1ccccc1Cn1ccn2c(=O)cc(N3CCOCC3)nc12 shows %Inh strictly lower than 10%.
Not met

Next:
Take the molecule Cc1ccc(NC(=O)Nc2ccc(Cl)c(C(F)(F)F)c2)cc1-c1ccc(C(=O)Nc2ccncc2)cc1 and say whether its %Inh is less than 10%.
Met

Lab note: %Inh threshold 10%. Does this molecule come in strictly under it? Cc1cccc2c(-c3ccncn3)c(-c3ccc(F)cc3)nn12
Met

is_below(%Inh, 10%) for CC(=O)c1c(C)c2cnc(Nc3ccc(N4CCNCC4)cn3)nc2n(C2CCCC2)c1=O ?
Met

Field: below-cutoff. Rule: recorded %Inh strictly less than 10%. Subject: COc1ccc(Nc2nccc(N3CCC(NC(=O)C(C)c4ccc(Cl)cc4)C3)n2)cc1 (stereo not drawn)
Not met

* * *

System: ERK3;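 note: kd values determined as follow-up on hits from a single-replicate KINOMEscan panel screen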
Construct: gene MAPK6
recorded metric: Kd

Fill in: ERK3 Kd for CCn1c(-c2c(N)noc2C)nc2cnccc21 = > 10 µM

* * *

System: HPK1
condition info: concentration: 1 μM, replicates: in singlicate; n = 1
Just a reminder that ties go to not satisfied: only %Inh strictly below 10% counts as satisfied.

Decide: %Inh of CSc1ccc(-c2nc3n(c2-c2ccncc2)CCC3)cc1 [SKF-105561] strictly below 10%?
satisfied

Below 10% on %Inh? Entry CC(C)c1ccc(O)cc1Nc1ccnc2ccc(C(F)(F)F)cc12 [GW482059]
not satisfied

Hello, is %Inh of the following compound strictly smaller than 10%? CC(=O)c1c(C)c2cnc(Nc3ccn(C)n3)nc2n(C2CCCC2)c1=O
satisfied

%Inh under 10%? Item: Cn1cncc1-c1cc2c(Nc3ccc(OCc4ccccc4)cc3)ncnc2cn1 [GW281179]
not satisfied

Could you please tell me whether %Inh recorded for COc1nccc(-c2c(-c3ccc(F)cc3)ncn2CCCN2CCOCC2)n1 [SB-282852] is less than 10%?
not satisfied

---
Lab note: %Inh threshold 10%. Does this compound come in strictly under it? CS(=O)(=O)Cc1ccc(Nc2nccc(-c3c(-c4cccc(NC(=O)C5CCCCC5)c4)nn4ncccc34)n2)cc1 [GSK350559]
not satisfied

API: query returns whether the compound falls strictly under 10% in %Inh. Query: Fc1ccc(-c2nc3n(c2-c2ccncc2)CCS3)cc1 [GI98581]
not satisfied

Does COC(=O)C(NC(=O)NC1CCN(c2ccnc(Nc3ccc(F)cc3)n2)C1)c1ccccc1 (stereo not drawn) [GSK1379712] have %Inh strictly under 10%?
not satisfied

For CNc1nc(-c2ccc3c(N)n[nH]c3c2)cc(N2C[C@@H](C(=O)NC3CCCCC3)OC[C@H]2C)n1 [GSK2375584] , is the recorded %Inh below the cut-off of 10%?
not satisfied

* * *

Test system: FYN
condition info: concentration: 1 μM, replicates: in singlicate; n = 1
Field 'label' (enum: class 1 / class 0). Set to class 1 when %Inh is strictly under 20%; else class 0.

Consider the following illustrative entries.
In the record for CC(C)c1cc(-c2ccc3c(N)n[nH]c3c2)nc(N)n1 , is %Inh less than 20%?
class 0

Quick check: does FC(F)(F)c1ccccc1-c1cc(-c2c[nH]nc2-c2ccccn2)ccn1 have %Inh under 20%?
class 1

Does this molecule meet the criterion %Inh < 20%? COc1cccc(C2=C(Nc3cc(Cl)c(O)c(Cl)c3)C(=O)NC2=O)c1
class 0

State whether 20% exceeds %Inh recorded for Cn1cncc1C(=O)NC1CCN(c2ccnc(Nc3ccc(F)cc3)n2)C1 (stereo not drawn) .
class 0

I wonder whether O=C(Nc1n[nH]c2nc(-c3cccs3)c(Br)cc12)C1CC1 has %Inh below 20%. Can you tell?
class 1

Next:
Field: below-cutoff. Rule: recorded %Inh strictly less than 20%. Subject: CC(=O)c1c(C)c2cnc(Nc3ccc(N4CCNCC4)cn3)nc2n(C2CCCC2)c1=O
class 1

Report whether reported %Inh is lower than 20% (strictly) for CC[C@@H]1CO[C@H](C(=O)Nc2ccccc2)CN1c1cc(-c2ccc3c(N)n[nH]c3c2)nc(NC)n1
class 0

Does this molecule meet the criterion %Inh < 20%? CNCc1ccc2nc(NC(=O)c3ccc(C(C)(C)C)cc3)cn2c1
class 1

Is 20% strictly greater than the molecule's reported %Inh? molecule: CCCCc1nn2ncccc2c1-c1ccnc(NC2CC2)n1
class 0

* * *

Tested on: ALK
condition info: concentration: 1 μM, replicates: in singlicate; n = 1
Recorded %Inh values for a group of compounds are listed next.
Dear colleague, please return just the value in %, with no unit written.

Lookup result for CNCc1ccc2nc(NC(=O)c3ccc(C(C)(C)C)cc3)cn2c1 ; measured %Inh: 16

Entry under test: FC(F)(F)c1ccccc1-c1cc(-c2c[nH]nc2-c2ccccn2)ccn1 . Its %Inh was 18

Input CCn1c(-c2ccccc2)nc2cnccc21 . Output %Inh: 36

Entry Cc1ccc(-c2nc(Nc3ccncc3)c3ccccc3n2)s1 , %Inh reported as 26

Form field %Inh, entry Cc1c(Cn2c3ccccc3n3c(=O)cc(N4CCOCC4)nc23)cccc1C(F)(F)F : 2

Further cases:
# %Inh of Cc1ccc(NC(=O)c2ccc(Cl)cc2)cc1-c1ccc(C(=O)Nc2ccncc2)cc1 = 18

%Inh reading for CNc1nc(-c2ccc3c(N)n[nH]c3c2)cc(N2C[C@@H](C(=O)NC3CCCCC3)OC[C@H]2C)n1 : 0

Field %Inh (entry CC(=O)c1c(C)c2cnc(Nc3ccn(C)n3)nc2n(C2CCCC2)c1=O ) reads 6

%Inh reported for this compound Nc1ncnc2occ(-c3ccc4c(c3)CCN4C(=O)Cc3cc(F)ccc3F)c12 : 0

Lookup result for Cc1ccccc1-c1cc(-c2c[nH]nc2-c2ccccn2)ccn1 ; measured %Inh: 22

For reference, reported %Inh for Cc1ccccc1Cn1ccn2c(=O)cc(N3CCOCC3)nc12 stands at 28

* * *

Recorded %Inh by entry
System: CSK
condition info: concentration: 1 μM, replicates: in singlicate; n = 1
Number first, unit second: that is the form wanted.

CSK data for CNCc1ccc2nc(NC(=O)c3ccc(C(C)(C)C)cc3)cn2c1 ; its %Inh: 0%

Value (%Inh, CSK) for record COC(=O)C(Cc1ccccc1)NC(=O)NC1CCN(c2ccnc(Nc3ccc(F)cc3)n2)C1 (centres unmarked) = 0%

Bench note, CSK: entry COc1ccc(Nc2nccc(NCCNC(=O)Nc3cc(C)ccc3C)n2)cc1 , its %Inh = 0%

Known value: CSK %Inh of the compound COc1ccc(CSc2nnc(-c3ccc4ncsc4c3)o2)cc1C(F)(F)F equals 0%

* * *

Test system: CSF1R
condition info: concentration: 1 μM, replicates: in singlicate; n = 1
Listed here are molecules together with their documented %Inh.
Enter your answer as a number in %; do not include the unit.

Some molecules with known %Inh results, for comparison:
What the record says about NS(=O)(=O)c1cccc(N/C=C2\C(=O)Nc3ccc(S(=O)(=O)Cc4c(Cl)cccc4Cl)cc32)c1 [GSK398099] : %Inh is 3

Record Cc1c(Cn2c(C)c(C)n3c(=O)cc(N4CCOCC4)nc23)cccc1C(F)(F)F [GSK2328680] . Reported %Inh: 0

Data point: Cc1ccc(NC(=O)c2ccc(Cl)cc2)cc1-c1ccc(C(=O)Nc2ccncc2)cc1 [GSK1398467] ; %Inh = 97.1

Read the next record carefully.
Sample Fc1ccc(-c2nn3cccc(F)c3c2-c2ccncc2)cc1 [GW475620] ; %Inh observed: 0
